IC50 for Fibroblast growth factor receptor 1 (Homo sapiens, UniProt P11362) - collated from the literature.

Consider the following illustrative entries.
[[record]]
molecule = "CC1CN(C(=O)c2ccc(-c3n[nH]c4ccc(OC(C)c5c(Cl)cncc5Cl)cc34)cc2)CCN1 (centres unmarked)"
result = "50 to 1000 nM"

[[record]]
molecule = "COCCNc1cc(NC(=O)N2CCCc3cc(CN4CCN(C5CC5)CC4=O)c(C=O)nc32)ncc1C#N"
result = "> 10000 nM"


Just so you know, measured IC50 for CC(Oc1ccc2[nH]nc(/C=C/c3ccc(CN4CCOCC4)cc3Cl)c2c1)c1c(Cl)cncc1Cl (centres unmarked) came out at 50 to 1000 nM

Just so you know, measured IC50 for O=C1NCOc2cc3nccc(Oc4ccc(NC(=S)NC5CC5)c(Cl)c4)c3cc21 came out at 200 to 1000 nM

Just so you know, measured IC50 for COc1cc(Nc2ncnc(-n3c(NC(C)=O)nc4ccccc43)n2)cc(OC)c1OC came out at 919 to 5510 nM

Just so you know, measured IC50 for COc1cc(OC)c(F)c(N2Cc3cnc(N)c(C#N)c3N(Cc3cnn(C)c3)C2=O)c1F came out at < 100 nM

Just so you know, measured IC50 for C[C@@H](Oc1ccc2[nH]nc(/C=C(\F)c3ccc(NC4CCNCC4)nc3)c2c1)c1c(Cl)cncc1Cl came out at ≤ 10 nM

Just so you know, measured IC50 for COc1cc2nccc(Oc3ccc4nc(NCC(F)F)sc4c3)c2cc1C(N)=O came out at 200 to 1000 nM
